target: T1, COVID S1 RBM Fc fusion (Antigen 2) (SARS-CoV-2, UniProt P0DTC2 437-508); assay: phage ELISA
T1 construct: domain: RBM
experimental.readout: specificity ELISA, fold over background (fold over background)

binder	recorded.number
SARS-CoV-2 variant 1-5 (antibody, V domains shown) VH: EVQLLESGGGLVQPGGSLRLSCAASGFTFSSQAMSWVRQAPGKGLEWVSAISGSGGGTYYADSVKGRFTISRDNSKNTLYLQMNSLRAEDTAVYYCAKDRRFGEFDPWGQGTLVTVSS VL: QSALTQPASVSGSPGQSITISCTGTSSGVGSYNLVSWYQQHPGKAPKLMIYEASKRPSGVSNRFSGSKSGNTASLTISGLQAEDEADYYCCSYAGSYTFAVFGGGTKLTVL	1.4
SARS-CoV-2 variant 1-35 (antibody, V domains shown) VH: EVQLLESGGGLVQPGGSLRLSCAASGFTFSNYAMSWVRQAPGKGLEWVSDISGSGGSTYYADSVKGRFTISRDNSKNTLYLQMNSLRAEDTAVYYCVKGTIPIFGVIRSAFDYWGQGTLVTVSS VL: QSALTQPASVSGSPGQSITISCTGTSSDVGSYSLVSWYQQHPGKAPKLMIYEGTKRPSGVSNRFSGSKSGNTASLTISGLQAEDEADYYCCSYAGSYSYVVFGGGTKLTVL	1.6
SARS-CoV-2 variant 1-28 (antibody, V domains shown) VH: EVQLLESGGGLVQPGGSLRLSCAASGFTFSSYGMSWVRQAPGKGLEWVSAISGSGGGTYYADSVKGRFTISRDNSKNTLYLQMNSLRAEDTAVYYCASSSSWQFDYWGQGTLVTVSS VL: QSALTQPASVSGSPGQSITISCTGTSSGVGSYNLVSWYQQHPGKAPKLMIYEGSQRPSGVSNRFSGSKSGNTASLTISGLQAEDEADYYCCSYAGSSTHYVFGGGTKLTVL	1.2
SARS-CoV-2 variant 1-45 (antibody, V domains shown) VH: EVQLLESGGGLVQPGGSLRLSCAASGFTFSSYAMSWVRQAPGKGLEWVSIISGSAGSTYYADSVKGRFTISRDNSKNTLYLQMNSLRAEDTAVYYCARDGYKYCLWGQGTLVTVSS VL: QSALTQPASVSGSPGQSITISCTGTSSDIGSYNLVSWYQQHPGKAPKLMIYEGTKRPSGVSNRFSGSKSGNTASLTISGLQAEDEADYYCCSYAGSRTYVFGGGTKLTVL	1
SARS-CoV-2 variant 1-10 (antibody, V domains shown) VH: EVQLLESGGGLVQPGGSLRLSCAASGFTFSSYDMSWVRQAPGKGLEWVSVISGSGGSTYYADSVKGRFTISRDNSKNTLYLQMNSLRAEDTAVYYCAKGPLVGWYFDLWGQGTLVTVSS VL: QSALTQPASVSGSPGQSITISCTGTSSNVGSYNLVSWYQQHPGKAPKLMIYEGTKRPSGVSNRFSGSKSGNTASLTISGLQAEDEADYYCCSYAGSSSFVVFGGGTKLTVL	1.1

Source: patent US20210395344A1
